The reported numbers originate from ChEMBL document CHEMBL1828509.

# zone of inhibition at 50 µg/mL listing for each entry below
# Test system: Escherichia coli
# EXPERIMENT SUMMARY: Antimicrobial activity against Escherichia coli MTCC 4315 at 50 ug/ml
# Format: functional
# REPORTED CONDITIONS: read-out: IZ
Could you give the number and then its unit, please?

Answered cases to consult:
STRUCTURE STRING	ASSAY METRIC	ENDPOINT VALUE
NCC[C@H](O)C(=O)N[C@@H]1C[C@H](N)[C@@H](O[C@H]2O[C@H](CN)[C@@H](O)[C@H](O)[C@H]2O)[C@H](O)[C@H]1O[C@H]1O[C@H](CO)[C@@H](O)[C@H](N)[C@H]1O	zone of inhibition at 50 µg/mL	20 mm
COc1ccccc1NCC(=O)Oc1ccc2c(C)cc(=O)oc2c1	zone of inhibition at 50 µg/mL	10.2 mm
Cc1cc(=O)oc2cc(OC(=O)CNc3ccccc3)ccc12	zone of inhibition at 50 µg/mL	10.4 mm
Cc1cc(=O)oc2cc(OC(=O)CNc3cccc([N+](=O)[O-])c3)ccc12	zone of inhibition at 50 µg/mL	11.1 mm
Cc1cc(=O)oc2cc(OC(=O)CNc3ccccc3Cl)ccc12	zone of inhibition at 50 µg/mL	12.6 mm

stdin: zone of inhibition at 50 µg/mL lookup needed for `Cc1ccc(NCC(=O)Oc2ccc3c(C)cc(=O)oc3c2)cc1` , thanks.
stdout: 14 mm

stdin: Please give the measured zone of inhibition at 50 µg/mL for this molecule: `Cc1cc(=O)oc2cc(OC(=O)CNc3ccc([N+](=O)[O-])cc3)ccc12`
stdout: 16.9 mm

----------
# Tested on: Candida albicans
# EXPERIMENT SUMMARY: Antifungal activity against Candida albicans MTCC 183 at 25 ug/ml
# Type: functional
# REPORTED CONDITIONS: read-out: IZ
Listed here: items and their measured zone of inhibition at 25 µg/mL.
A number alone suffices; assume mm.

Here is how some compounds turned out for zone of inhibition at 25 µg/mL.
STRUCTURE STRING	SYSTEM NAME	ENDPOINT VALUE
Cc1cccc(NCC(=O)Oc2ccc3c(C)cc(=O)oc3c2)c1	Candida albicans	13.4
Cc1cc(=O)oc2cc(OC(=O)CNc3ccccc3[N+](=O)[O-])ccc12	Candida albicans	10.4

Now for the compound whose zone of inhibition at 25 µg/mL we want.
stdin: Returns the measured zone of inhibition at 25 µg/mL for the input compound. Input: `Cc1cc(=O)oc2cc(OC(=O)CNc3ccc(Cl)cc3)ccc12`
stdout: 12.2

----------
# System: Aspergillus niger
# EXPERIMENT SUMMARY: Antifungal activity against Aspergillus niger MTCC 282 at 50 ug/ml
# Type: functional
# REPORTED CONDITIONS: read-out: IZ
ASSAY METRIC: zone of inhibition at 50 µg/mL (mm)
State just the number; it will be interpreted in mm.

As a guide, the following entries are already answered.
STRUCTURE STRING	UNITS SYMBOL	zone of inhibition at 50 µg/mL
Cc1cc(=O)oc2cc(OC(=O)CNc3cccc([N+](=O)[O-])c3)ccc12	mm	11.4
Cc1cc(=O)oc2cc(OC(=O)CNc3ccc(Cl)cc3)ccc12	mm	12.1
Cc1ccccc1NCC(=O)Oc1ccc2c(C)cc(=O)oc2c1	mm	13.1
Cc1ccc(NCC(=O)Oc2ccc3c(C)cc(=O)oc3c2)cc1	mm	11.4

stdin: Return reported zone of inhibition at 50 µg/mL; argument: `Cc1cc(=O)oc2cc(OC(=O)CNc3ccc([N+](=O)[O-])cc3)ccc12`
stdout: 10.2
